- Tested on: Klebsiella pneumoniae
- protocol: Antibacterial activity against colistin-susceptible NDM-1/carbapenemase-producing Klebsiella pneumoniae assessed as inhibition of growth at 50 uM after 18 hrs
- Format: functional, organism-based
Calls of active or inactive are those of the source. The calls are words filed in the database; no cut-off is given here.
Possible outcomes: Yes = active, No = inactive

| chemical_structure | classification |
| --- | --- |
| O=C(Nc1ccc([N+](=O)[O-])cc1Cl)c1cc(Cl)ccc1OCCN1CCOCC1 | No |
| NCCCCCOc1ccc(Cl)cc1C(=O)Nc1ccc([N+](=O)[O-])cc1Cl | Yes |
| CN1CCC(Oc2ccc(Cl)cc2C(=O)Nc2ccc([N+](=O)[O-])cc2Cl)CC1 | No |
